Test system: UACC-257 melanoma
test-summary: NCI tumour cell line growth inhibition, 48 h
assay-metric: TGI

In: Which TGI is reported for this compound? "CCOC(=O)/C(=C\c1ccc(OCc2ccccc2)c(OC)c1)C(=O)c1ccccc1"
Out: > 10 µM

In: Which TGI is reported for this compound? "Cc1c(NC(=S)N/N=C\C(=N/NC(=S)Nc2c(C)n(C)n(-c3ccccc3)c2=O)c2ccccc2)c(=O)n(-c2ccccc2)n1C"
Out: > 100 µM

In: Which TGI is reported for this compound? "Cc1cccc(/C=N/NC(=S)N2CCCCCC2)n1"
Out: 1.91 µM

In: Which TGI is reported for this compound? "c1ccc2[nH]c(SSc3nc4ncncc4[nH]3)nc2c1"
Out: > 75.2 µM

In: Which TGI is reported for this compound? "CN(C)NC1=NS(=O)(=O)c2cc3c(cc2S1)N(N(C)C)C(=O)c1cc2c(cc1N(N(C)C)C3=O)SC(NN(C)C)=NS2(=O)=O"
Out: > 10 µM

In: Which TGI is reported for this compound? COc1ccc(C(=O)C(c2ccc(OC)cc2)C2(O)C(=O)Nc3c(C)cc(Cl)cc32)cc1 (centres undefined)
Out: > 100 µM

In: Which TGI is reported for this compound? C=C1C(=O)O[C@@H]2C1C[C@@H](O)/C(C)=C/C/C=C(\C)CCC[C@H](C)[C@H]2OC(C)=O (some centres undefined)
Out: > 100 µM

In: Which TGI is reported for this compound? O=C1CCCCCCCC/C=C/CCC(c2ccco2)O1 (centres undefined)
Out: > 100 µM

In: Which TGI is reported for this compound? "N#Cc1ccc(/C=N/NC(=O)CSCC(=O)N/N=C/c2ccc(C#N)cc2)cc1"
Out: > 100 µM

In: Which TGI is reported for this compound? "CN(C)Cc1cc(C(C)(C)C)cc(CNC2CCCCC2)c1O"
Out: 79.8 µM

In: Which TGI is reported for this compound? "Cn1ccc2c(NCCN)c3c(c(NCCN)c21)C(=O)c1ccccc1C3=O"
Out: > 27.7 µM

In: Which TGI is reported for this compound? "CCN(CC)CCOc1ccc(Nc2ncc3cc(-c4ccc(O)cc4)c(=O)n(C)c3n2)cc1"
Out: 31.6 µM

In: Which TGI is reported for this compound? COC(=O)C1=COC(C)C2C[n+]3ccc4c([nH]c5ccccc54)c3CC12 (centres undefined)
Out: > 100 µM

In: Which TGI is reported for this compound? "Cc1ccccc1CN1CC2=C(CCN(Cc3ccccc3)C2=O)N2CCN=C12"
Out: > 100 µM

Reference source: PubChem BioAssay (NCI)
